# ASSAY METHOD TEXT: Cytotoxicity in human AZ-521 cells assessed as cell viability after 48 hrs by MTT assay
# Format: functional, cell-based
# EXPERIMENTAL SETUP: AZ-521, 48 h
pIC50: −log10 of the molar value.
The following compounds are listed with their measured pIC50 values.

| COMPOUND | READOUT QUALIFIER | pIC50 |
| --- | --- | --- |
| C=C(CC[C@@H](C(=O)OC)[C@H]1[C@H](O)C[C@@]2(C)C3=C(CC[C@]12C)[C@@](C)(CCC(=O)OC)[C@H](C(=C)C)CC3)C(C)C [DIMETHYL PORICOATE H] | = | 4.84 |
| C=C(CC[C@@H](C(=O)OC)[C@H]1[C@H](O)C[C@@]2(C)C3=CC[C@H]4C(C)(C)[C@H](O)CC[C@]4(C)C3=CC[C@]12C)C(C)(C)O | = | 4.84 |
| C=C(C)[C@@H]1CCC2=C(CC[C@]3(C)[C@@H]([C@H](CO)CCC=C(C)C)[C@H](O)C[C@@]23C)[C@@]1(C)CCCO | = | 4.87 |
| C=C(C)[C@@H]1CCC2=C(CC[C@]3(C)[C@@H]([C@@H](CCC=C(C)C)C(=O)OC)[C@H](O)C[C@@]23C)[C@@]1(C)CCC(=O)OC [DIMETHYL PORICOATE G] | = | 4.46 |
| C=C(C)[C@@H]1CCC2=C(CC[C@]3(C)[C@@H]([C@@H](CCC=C(C)C)C(=O)O)[C@H](O)C[C@@]23C)[C@@]1(C)CCC(=O)O | < | 4.00 |
| C=C(CC[C@@H](CO)[C@H]1[C@H](O)C[C@@]2(C)C3=CC[C@H]4C(C)(C)[C@H](O)CC[C@]4(C)C3=CC[C@]12C)C(C)(C)O | < | 4.00 |
